target_or_system: HoblOBP4 (Holotrichia oblita)
run_description: biochemical
Type: binding
result_type: Ki (µM)
Please reply with the bare figure in µM and do not write the unit itself.

Per the record, CCCCCCC has Ki of 11.8

Per the record, CCC/C=C/CO [trans-2-Hexenol] has Ki of 17.7

Per the record, CC1=CC[C@@H](C(C)(C)O)CC1 has Ki of 26.1

Per the record, CCC/C=C/C=O [trans-2-Hexenal] has Ki of 8.1

Per the record, O=Cc1ccccc1 has Ki of 12.5

Per the record, CC1=CCC(O)(C(C)C)CC1 (stereo not drawn) has Ki of 15.4

Per the record, CC(=O)CCC=C(C)C has Ki of 23.5

Per the record, CCC/C=C\CO [cis-2-Hexen-1-ol] has Ki of 10.3

Per the record, CC/C=C\CCO [cis-3-Hexen-1-ol] has Ki of 12.5

Per the record, CC(=O)/C=C/C1C(C)=CCCC1(C)C (stereo not drawn) has Ki of 14

Per the record, C=C[C@](C)(O)CCC=C(C)C [R-(-)-Linalool] has Ki of 14.7

Per the record, CCCCCC=O has Ki of 11

Per the record, CC(=O)/C=C/C1=C(C)CCCC1(C)C has Ki of 11

Per the record, O=C/C=C/c1ccccc1 has Ki of 6.6

Per the record, CC(C)=CCC/C(C)=C/CO has Ki of 11.8

###

target_or_system: HoblOBP4 (Holotrichia oblita, UniProt G9BWQ8)
Sequence (G9BWQ8 entry or part of it): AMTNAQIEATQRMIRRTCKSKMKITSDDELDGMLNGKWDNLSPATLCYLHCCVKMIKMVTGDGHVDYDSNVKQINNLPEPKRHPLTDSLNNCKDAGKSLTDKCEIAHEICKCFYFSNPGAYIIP
run_description: biochemical
Type: binding
test_conditions: HoblOBP4; protein and 1-NPN both 2 µM; ligand titrated 2–50 µM; read-out: IC50 (concentration of ligand halving the initial fluorescence intensity)
result_type: IC50 (µM)
Please reply with the bare figure in µM and do not write the unit itself.

Per the record, CCCCCCCO has IC50 of 21

Per the record, CCCCCCOC(=O)c1ccccc1 [Hexyl benzoate] has IC50 of 4

Per the record, CCCCC=O has IC50 of 16

Per the record, CCCCCCCC has IC50 of 25

Per the record, CCCCCCCCCO has IC50 of 16

Per the record, CCOC(=O)CN has IC50 of 24

Per the record, O=C1C=CCCC1 has IC50 of 23

Per the record, CCCCOC(=O)c1ccccc1 [Butyl Benzoate] has IC50 of 11

Per the record, CCCOC(=O)c1ccccc1 [Propyl benzoate] has IC50 of 20

Per the record, CC[C@H](C)[C@H](N)C(=O)OC has IC50 of 24

Per the record, CC/C=C\CCOC(C)=O [(Z)-3-Hexenyl acetate] has IC50 of 40

Per the record, CCOC(=O)[C@@H]1CCCN1 has IC50 of 20

Per the record, OCCc1ccccc1 has IC50 of 28

Per the record, CC(C)(C)C1CCC(O)CC1 (stereo not shown) has IC50 of 19

Per the record, CCCCCCO has IC50 of 12

Per the record, C=CC(O)CCCCC (stereo not shown) has IC50 of 40

###

target_or_system: HoblOBP4 (Holotrichia oblita, UniProt G9BWQ8)
run_description: biochemical
Assay type: binding
test_conditions: HoblOBP4; calculated from IC50 and K1-NPN; read-out: Ki
Record form. Attribute: Ki. Fill in for each entry.
Please reply with the bare figure in µM and do not write the unit itself.

Per the record, CCCCC=O has Ki of 11.8

Per the record, CCCCCCCC has Ki of 18.4

Per the record, CCCCCCO has Ki of 8.8
